Reference for the values: PubChem BioAssay (NCI)

- Test system: SNB-75 CNS
- test.name: NCI-60 one-dose screen, 48 h (100 = growth as untreated, 0 = no growth, -100 = all killed)
- condition.label: 10 µM unless noted
Compounds without any hit were thinned out: in the full panel of roughly 83,000, 20% have a hit.
Consider the cut-off 40%. If the recorded growth is strictly smaller, the label is TRUE; if not, the label is FALSE.

Hi there! Is growth for COC1C[C@H](O[C@@H]2C[C@H](O[C@@H]3C[C@H](O[C@@H]4C(=O)c5c(cc6cc(O[C@H]7C[C@@H](O[C@H]8C[C@@H](O)[C@H](O)C(C)O8)[C@H](O)C(C)O7)c(C)c(O)c6c5O)C[C@H]4C(OC)C(=O)[C@@H](O)[C@@H](C)O)OC(C)[C@H]3O)OC(C)[C@@H]2O)OC(C)[C@@H]1O (stereo partly drawn) below 40%, do you know?
TRUE

Given the entry CN(Cc1ccc(C(F)(F)F)cc1)CC(O)C(=O)Nc1ccc(Cl)cc1 (stereo not drawn) , would its reported growth be below 40%?
TRUE

Given "Cc1ccc(-c2nn(-c3ccccc3)cc2C=C2C(=O)ON=C2C(C)C)cc1" , is recorded growth strictly lower than 40%?
FALSE

Confirm or reject: growth of "Oc1c(Cl)cc(Cl)c2ccc(Cn3cc(-c4ccc(C(F)(F)F)cc4)nn3)nc12" lies strictly below 40%
FALSE

I'd appreciate it if you could check whether "CCN(CC)CCCN1C(=O)c2c(c(C)c3c(oc4cc(O)ccc43)c2C)C1=O" has growth smaller than 40%.
FALSE

is_below(growth, 40%) for "CCOC(=O)C(=Cc1cccc(Cl)c1)C(=O)OCC" ?
TRUE

Record "COc1ccc(C(=O)Nc2ncc(Cc3ccc(F)cc3)s2)cc1" : is its growth strictly below 40%?
TRUE

Does the reported growth of CCCCCCC1(C)NCCO1 (stereo not drawn) stay below 40%?
FALSE
